biological target: Gal(a1-3)Gal(b1-4)GlcNAc(b1-2)Man; assay: glycan array binding signal (z-score within array); higher = stronger binding; conditions: glycan notation: IUPAC condensed, linker removed
This is one part of a sample in which the strongest signals are shown more often than they occur.
Metric: glycan array binding signal (z-score)

>  <Binder>
MAL-II (Maackia amurensis), P93248 (protein) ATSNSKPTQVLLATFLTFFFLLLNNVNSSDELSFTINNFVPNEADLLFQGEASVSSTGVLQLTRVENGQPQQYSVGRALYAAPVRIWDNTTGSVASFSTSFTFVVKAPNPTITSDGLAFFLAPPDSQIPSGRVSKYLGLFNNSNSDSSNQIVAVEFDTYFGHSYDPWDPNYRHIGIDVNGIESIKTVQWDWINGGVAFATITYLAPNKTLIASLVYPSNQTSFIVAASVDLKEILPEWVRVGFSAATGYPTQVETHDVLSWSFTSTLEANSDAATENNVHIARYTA

>  <glycan array binding signal (z-score)>
-0.188

$$$$
>  <Binder>
Erv46-EDTA (Saccharomyces cerevisiae), P39727 (protein) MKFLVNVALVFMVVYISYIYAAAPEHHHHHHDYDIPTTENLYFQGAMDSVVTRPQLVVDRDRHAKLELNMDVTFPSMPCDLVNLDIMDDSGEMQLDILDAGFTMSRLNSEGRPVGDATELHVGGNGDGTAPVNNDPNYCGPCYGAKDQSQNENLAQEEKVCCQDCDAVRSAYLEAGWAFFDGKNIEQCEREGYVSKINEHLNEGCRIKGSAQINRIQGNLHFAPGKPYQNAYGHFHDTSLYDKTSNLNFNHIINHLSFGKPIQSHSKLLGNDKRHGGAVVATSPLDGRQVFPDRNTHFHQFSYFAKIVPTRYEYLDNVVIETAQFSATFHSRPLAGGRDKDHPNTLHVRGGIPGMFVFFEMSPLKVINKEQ

>  <glycan array binding signal (z-score)>
0.805

$$$$

Batch of 8 binders: report glycan array binding signal (z-score) for each.
1. SBD-G4S3-Fc (protein) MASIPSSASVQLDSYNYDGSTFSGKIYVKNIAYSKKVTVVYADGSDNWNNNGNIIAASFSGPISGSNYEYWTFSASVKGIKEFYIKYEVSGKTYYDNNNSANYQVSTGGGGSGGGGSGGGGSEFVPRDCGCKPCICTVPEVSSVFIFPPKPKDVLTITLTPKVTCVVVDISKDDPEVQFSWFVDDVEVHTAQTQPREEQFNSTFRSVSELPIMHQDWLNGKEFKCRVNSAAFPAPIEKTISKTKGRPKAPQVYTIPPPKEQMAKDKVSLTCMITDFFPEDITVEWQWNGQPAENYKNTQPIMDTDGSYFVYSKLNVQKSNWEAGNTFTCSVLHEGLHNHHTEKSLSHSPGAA
2. Gal 8 (Mus musculus), Q9JL15 (protein) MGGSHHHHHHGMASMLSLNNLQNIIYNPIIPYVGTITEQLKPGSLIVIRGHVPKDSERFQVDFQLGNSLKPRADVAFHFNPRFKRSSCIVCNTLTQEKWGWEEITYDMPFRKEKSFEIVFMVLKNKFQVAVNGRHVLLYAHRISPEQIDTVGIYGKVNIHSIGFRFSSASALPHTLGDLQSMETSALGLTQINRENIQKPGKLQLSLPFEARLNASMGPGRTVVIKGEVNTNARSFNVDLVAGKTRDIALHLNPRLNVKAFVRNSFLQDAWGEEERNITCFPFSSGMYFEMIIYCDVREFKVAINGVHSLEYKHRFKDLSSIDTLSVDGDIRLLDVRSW
3. LSL-150 (Laetiporus sulphureus), Q7Z8V1 (protein) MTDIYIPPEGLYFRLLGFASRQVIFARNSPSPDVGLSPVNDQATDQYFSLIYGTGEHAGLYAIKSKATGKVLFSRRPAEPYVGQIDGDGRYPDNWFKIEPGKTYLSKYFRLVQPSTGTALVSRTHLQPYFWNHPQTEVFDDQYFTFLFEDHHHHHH
4. LlpA1 (Pseudomonas fluorescens), Q4KHC3 (protein) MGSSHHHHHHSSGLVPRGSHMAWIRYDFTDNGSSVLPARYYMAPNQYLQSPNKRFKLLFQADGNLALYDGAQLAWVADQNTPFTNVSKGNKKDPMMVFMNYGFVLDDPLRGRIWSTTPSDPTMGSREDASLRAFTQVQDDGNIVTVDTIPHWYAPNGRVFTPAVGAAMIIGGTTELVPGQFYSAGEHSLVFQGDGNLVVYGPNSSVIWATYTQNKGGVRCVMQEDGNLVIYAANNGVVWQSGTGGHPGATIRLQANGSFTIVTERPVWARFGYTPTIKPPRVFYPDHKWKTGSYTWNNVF
5. MGL (Homo sapiens), Q8IUN9 (protein) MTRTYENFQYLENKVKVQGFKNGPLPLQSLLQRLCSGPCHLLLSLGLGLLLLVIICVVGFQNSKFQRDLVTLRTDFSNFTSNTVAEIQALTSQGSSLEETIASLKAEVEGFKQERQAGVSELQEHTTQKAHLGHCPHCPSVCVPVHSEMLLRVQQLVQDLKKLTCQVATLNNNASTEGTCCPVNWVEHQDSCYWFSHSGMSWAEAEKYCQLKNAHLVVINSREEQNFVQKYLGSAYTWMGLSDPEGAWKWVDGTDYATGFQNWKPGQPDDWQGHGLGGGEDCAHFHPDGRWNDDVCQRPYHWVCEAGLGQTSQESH
6. Arath Fbox LD (Arabidopsis thaliana) (protein) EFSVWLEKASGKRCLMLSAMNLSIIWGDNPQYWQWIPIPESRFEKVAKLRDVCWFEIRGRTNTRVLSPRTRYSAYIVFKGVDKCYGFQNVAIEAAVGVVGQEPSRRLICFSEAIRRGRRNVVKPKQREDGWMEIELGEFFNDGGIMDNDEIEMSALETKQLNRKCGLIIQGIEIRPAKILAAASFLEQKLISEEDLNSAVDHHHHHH
7. BTL (Bryothamnion triquetrum) (protein) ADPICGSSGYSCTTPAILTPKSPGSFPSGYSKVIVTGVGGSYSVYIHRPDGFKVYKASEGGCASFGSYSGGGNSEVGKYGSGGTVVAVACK
8. Si Bti9 1b-V5-his (Solanum lycopersicum) (protein) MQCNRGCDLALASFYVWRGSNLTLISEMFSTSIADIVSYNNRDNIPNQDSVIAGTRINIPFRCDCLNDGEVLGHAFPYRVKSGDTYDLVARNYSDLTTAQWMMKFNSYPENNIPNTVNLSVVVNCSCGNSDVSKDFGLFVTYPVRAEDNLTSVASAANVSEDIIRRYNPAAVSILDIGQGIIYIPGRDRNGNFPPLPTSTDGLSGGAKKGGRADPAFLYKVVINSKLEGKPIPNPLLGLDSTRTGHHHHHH

Ans:
[-0.234, 0.378, -0.208, -0.521, -0.252, -0.233, -0.311, -0.206]
